The reader will find reported % IL-8 Inhibition values listed item by item below.
# Target Entity: endogenous human tissue factor on MDA-MB-231 breast cancer cells (human, UniProt P13726 33-295); note: test concentration or dose not given here
# Test Description: cell-based or functional assay
Give just the number in %; leave the unit off.

Field: example entries. Status: answers known.
Binder: murine antibody 10H10 (antibody, V domains shown) VH: QVHLQQSGAELMKPGASVKISCKASGYTFITYWIEWVKQRPGHGLEWIGDILPGSGSTNYNENFKGKATFTADSSSNTAYMQLSSLTSEDSAVYYCARSGYYGNSGFAYWGQGTLVTVSA VL: DIVMTQSPSSLTVTAGEKVTMSCKSSQSLLSSGNQKNYLTWYQQIPGQPPKLLIYWASTRESGVPDRFTGSGSGTDFTLTINSVQAEDLAVYYCQNDYTYPLTFGAGTKLELK
Endpoint Name: % IL-8 Inhibition
Units Text: %
Value: 93.9
//
Binder: M10 (antibody, V domains shown, complete MAb; FR4 is its own entry; also called H15/L3) VH: EVQLVQSGAEVKKPGESLRISCKGSGYTFITYWIEWVRQMPGKGLEWMGDILPGSGSTNYNENFKGHVTISADKSISTAYLQWSSLKASDTAMYYCARSGYYGNSGFAYWGQGTLVTVSS VL: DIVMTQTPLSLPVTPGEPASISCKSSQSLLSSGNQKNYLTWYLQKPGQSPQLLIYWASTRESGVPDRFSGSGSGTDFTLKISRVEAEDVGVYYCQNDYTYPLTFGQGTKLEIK
Endpoint Name: % IL-8 Inhibition
Units Text: %
Value: 90.7

[in] Looking for the measured % IL-8 Inhibition of M9 (antibody, V domains shown, complete MAb; FR4 is its own entry; also called H15/L2) VH: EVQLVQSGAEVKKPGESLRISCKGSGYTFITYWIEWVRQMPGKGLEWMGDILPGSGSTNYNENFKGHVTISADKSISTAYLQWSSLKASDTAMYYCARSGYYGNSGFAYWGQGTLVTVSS VL: DIVMTQSPDSLAVSLGERATINCKSSQSLLSSGNQKNYLTWYQQKPGQPPKLLIYWASTRESGVPDRFSGSGSGTDFTLTISSLQAEDVAVYYCQNDYTYPLTFGQGTKLEIK , can you help?
[out] 103
